assay: Hematology assays after subcutaneous administration in CD-1 mice (Example 6); assay type: in vivo; conditions: 50 mg/kg subcutaneous twice weekly for 7 weeks
Strand notation (5' to 3'): a small letter for the sugar, then the base; units joined by * are phosphorothioate-linked, units joined directly phosphodiester-linked; [ ] holds rarer units or linkages, { } end groups; capitals alone tell only the bases. k = constrained ethyl (cEt); [5mC] = 5-methylcytosine; d = 2'-deoxy (DNA)
Listed here are substances together with their documented WBC.

[
  {
    "substance": "798781 (CGTAAGATTCACAGCA; 3-10-3 cEt gapmer, further chemistry not given here) [compound 798781]",
    "readoutName": "WBC",
    "result": "4.9 10^3/μL"
  },
  {
    "substance": "830027 (antisense kA*kA*k[5mC]*d[5mC]*dA*dT*dT*dT*dA*dT*d[5mC]*dT*dG*kG*kT*kG) [compound 830027]",
    "readoutName": "WBC",
    "result": "8.6 10^3/μL"
  },
  {
    "substance": "799144 (antisense kT*kT*kG*dG*dG*dT*dT*dA*dT*dG*dA*d[5mC]*dG*kG*kA*k[5mC]) [compound 799144]",
    "readoutName": "WBC",
    "result": "6.2 10^3/μL"
  },
  {
    "substance": "830121 (AGAATCAAGCCCTGGC; 3-10-3 cEt gapmer, further chemistry not given here) [compound 830121]",
    "readoutName": "WBC",
    "result": "10.1 10^3/μL"
  },
  {
    "substance": "790615 (CCAATGAGAATGCTTC; 3-10-3 cEt gapmer, further chemistry not given here) [compound 790615]",
    "readoutName": "WBC",
    "result": "10.5 10^3/μL"
  },
  {
    "substance": "829994 (GGAGGCAGGGCCGCGA; 3-10-3 cEt gapmer, further chemistry not given here) [compound 829994]",
    "readoutName": "WBC",
    "result": "5.0 10^3/μL"
  }
]

Query: Entry 830025 (antisense TTTGTAAATCGAAAGC; 3-10-3 cEt gapmer, further chemistry not given here) [compound 830025] has what WBC?
Response: 4.8 10^3/μL
